All values here come from PubChem BioAssay.

Biological target: Albumin (Bos taurus)
Assay: compounds binding labelled BSA control protein – biochemical, small-molecule microarray, Alexa647 label, 635/667 nm fluorescence, artefact control for SMM control protein annotation, profiling panel (AID 1118);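 note: score merges 667 nm emission intensity and signal-to-noise per printed compound spot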
Settings: BSA-A647 binding, fluorescence 635 nm, higher = more signal
Measured composite z-score by item

chemical_string	composite z-score
COC(=O)[C@@]1(Cc2ccccc2)[C@H]2c3cc(C(=O)N4CCCC4)n(Cc4ccc(O)c(OC)c4)c3C[C@H]2CN1C(=O)c1ccccc1	0.638
C[N+](C)(C)CCCC[C@@H]1NC(=O)[C@H]2C[C@@H](C(=O)NCCCCCCNC(=O)CS)[C@@H](c3ccc(O)cc3)N2C1=O	0.329
C=CC[C@]1(C(=O)N2CCOCC2)N=C(c2ccc(OCCCO)cc2)O[C@H]1c1ccccc1N=[N+]=[N-]	0.561
CCCC[C@@H]1C[C@H]1[C@@H](NC(=O)c1cccnc1)c1ccc(Cl)cc1	-1.41
CCOC(=O)C[C@H]1[C@H](OC(=O)c2ccc(C(=O)c3ccccc3)cc2)[C@@H](NC(=O)Cc2ccc(OC)cc2)c2cc(OCCCO)ccc2N1C(=O)c1ccc2ccccc2n1	0.701
COCCOC(=O)N1C(=O)[C@@]2(c3cc(C#Cc4ccc(OC)cc4)ccc31)[C@H](c1ccc(O)cc1)N1[C@H](c3ccccc3)[C@H](c3ccccc3)OC(=O)[C@H]1[C@@H]2C(=O)Nc1nc2ccccc2s1	0.576

###

Biological target: Focal adhesion kinase 1 (Homo sapiens) (UniProt Q05397)
Sequence (Q05397 whole entry, looked up): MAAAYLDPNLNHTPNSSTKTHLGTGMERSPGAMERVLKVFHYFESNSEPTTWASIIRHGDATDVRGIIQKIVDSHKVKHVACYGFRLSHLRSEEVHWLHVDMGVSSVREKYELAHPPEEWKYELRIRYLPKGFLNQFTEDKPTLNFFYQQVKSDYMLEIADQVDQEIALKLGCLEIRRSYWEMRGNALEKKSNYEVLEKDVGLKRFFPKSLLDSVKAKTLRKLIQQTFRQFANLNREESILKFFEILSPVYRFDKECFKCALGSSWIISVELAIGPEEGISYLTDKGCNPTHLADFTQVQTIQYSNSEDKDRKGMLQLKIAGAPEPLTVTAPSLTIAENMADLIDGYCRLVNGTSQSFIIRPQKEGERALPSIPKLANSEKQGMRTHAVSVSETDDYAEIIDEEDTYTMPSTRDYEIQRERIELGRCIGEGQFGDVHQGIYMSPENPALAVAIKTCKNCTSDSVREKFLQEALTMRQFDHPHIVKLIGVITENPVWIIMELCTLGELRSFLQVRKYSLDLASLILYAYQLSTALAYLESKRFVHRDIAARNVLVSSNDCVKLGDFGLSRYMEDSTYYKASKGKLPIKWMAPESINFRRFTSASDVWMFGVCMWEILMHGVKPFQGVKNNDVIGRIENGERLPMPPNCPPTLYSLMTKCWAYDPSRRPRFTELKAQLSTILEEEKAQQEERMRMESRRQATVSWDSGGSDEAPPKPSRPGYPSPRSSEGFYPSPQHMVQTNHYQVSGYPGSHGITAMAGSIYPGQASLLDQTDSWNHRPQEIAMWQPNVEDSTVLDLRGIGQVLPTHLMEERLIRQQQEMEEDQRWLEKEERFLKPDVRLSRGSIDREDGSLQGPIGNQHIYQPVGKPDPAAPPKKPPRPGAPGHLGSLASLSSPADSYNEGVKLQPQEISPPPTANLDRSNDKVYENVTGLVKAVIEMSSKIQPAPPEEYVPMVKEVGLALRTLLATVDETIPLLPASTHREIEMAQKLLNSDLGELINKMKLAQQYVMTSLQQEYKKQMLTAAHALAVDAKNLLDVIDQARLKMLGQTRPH
Assay: PTK2 protein binding on printed compound slides – biochemical, small-molecule microarray, 635/667 nm fluorescence, BSA, DTT, primary screen (AID 1130);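 note: composite of spot emission at 667 nm and signal to noise over triplicate slides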
Settings: 635 nm fluorescence, higher = more signal
Measured composite z-score by item
assay_readout: composite z-score

>>> print(df.to_string())
                                   compound                                       tgt  assay_value
0  CCCCCN1CC=CC23O[C@@H]4C=CCOC(=O)[C@@H]4[C@H]2C(=O)N(C(C)CO)[C@@H]3C1=O (some centres undefined)  Focal adhesion kinase 1 (Homo sapiens) (UniProt Q05397)        0.174
1  O=C(NC1CC1)[C@@H]1c2ccccc2C(=O)N(C2Cc3ccccc3C2)[C@H]1c1ccc(CO)cc1  Focal adhesion kinase 1 (Homo sapiens) (UniProt Q05397)        0.167
2  C=C(C)[C@@H]1CC=C(C(O)C2C=CC3C(=O)NC(=O)C3N2Nc2ccc(Cl)cc2Cl)CC1 (some centres undefined)  Focal adhesion kinase 1 (Homo sapiens) (UniProt Q05397)         1.33
3  O=C(NCc1ccccc1)[C@@H]1c2ccccc2C(=O)N(C2Cc3ccccc3C2)[C@H]1c1ccc(CO)cc1  Focal adhesion kinase 1 (Homo sapiens) (UniProt Q05397)        0.166

###

Target: E3 ubiquitin-protein ligase XIAP (Homo sapiens) (UniProt P98170)
Sequence (P98170 whole entry, looked up): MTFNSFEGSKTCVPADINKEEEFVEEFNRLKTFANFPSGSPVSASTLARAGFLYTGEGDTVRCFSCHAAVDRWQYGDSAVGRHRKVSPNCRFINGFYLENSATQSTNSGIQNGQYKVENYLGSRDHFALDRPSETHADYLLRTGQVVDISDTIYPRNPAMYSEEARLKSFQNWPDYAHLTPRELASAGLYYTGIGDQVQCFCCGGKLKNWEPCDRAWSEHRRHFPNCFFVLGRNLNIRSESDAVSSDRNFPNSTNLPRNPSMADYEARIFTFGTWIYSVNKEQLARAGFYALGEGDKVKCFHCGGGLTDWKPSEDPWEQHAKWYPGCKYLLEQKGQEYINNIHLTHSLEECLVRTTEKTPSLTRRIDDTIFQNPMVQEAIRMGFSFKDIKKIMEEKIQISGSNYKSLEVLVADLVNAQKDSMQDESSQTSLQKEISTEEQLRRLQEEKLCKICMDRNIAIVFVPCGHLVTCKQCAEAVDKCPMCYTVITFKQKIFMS
Test: small molecules binding XIAP protein – biophysical, small-molecule microarray, fluorescence 635 nm, primary screen (AID 1181);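 note: score merges 667 nm emission and signal to noise over triplicate slides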
Details: higher = more signal
assay_readout: composite z-score

molecule	assay_value
CCOC(=O)C1=CC[C@H]2C(=O)N(c3ccccc3)C(=O)[C@@H]12	0.154
C=CCNC(=O)[C@H]1[C@@H]2C(=O)O[C@@H](c3ccccc3)[C@@H](c3ccccc3)N2[C@@H](c2ccc(O)cc2)[C@]12C(=O)Nc1ccc(C#CCCO)cc12	-0.198
C=CCNC(=O)[C@@H]1[C@H]2C(=O)O[C@H](c3ccccc3)[C@H](c3ccccc3)N2[C@H](c2ccc(OCCO)cc2)[C@@]12C(=O)N(C(=O)OCCOC)c1ccc(C#CCNC(N)=O)cc12	-0.16
CCOC(=O)C1=CC[C@@H](c2ccc(C(F)(F)F)cc2)N(S(=O)(=O)c2ccc(C)cc2)[C@H]1c1ccccc1	-0.278
O=C1O[C@@H](c2ccccc2)[C@@H](c2ccccc2)N2[C@@H](c3ccc(OCCO)cc3)[C@]3(C(=O)Nc4ccc(C#CCCO)cc43)[C@@H](C(=O)NC[C@H](O)c3ccccc3)[C@H]12	-0.0249
O=C1OCCC/C=C\[C@H]2OC34C=CCN(c5ccc6ccccc6c5)C(=O)[C@H]3N(CCCCCO)C(=O)[C@@H]4C12 (some centres undefined)	-0.0541
C[N+](C)(C)CCCC[C@@H]1NC(=O)[C@@H]2C[C@H](C(=O)NCCCCCN)[C@H](c3ccc(O)cc3)N2C1=O	0.346
C=CC1c2cc(O)c(OC)cc2CCN1Cc1cccc(OC(F)(F)F)c1 (centres undefined)	0.0304
COC(=O)c1c2oc(c1C(=O)OC)C(=O)N[C@@H](C(C)C)Cn1cc(nn1)C1(CCCCC1)NC(=O)N[C@H](CO)CC2	0.098
C#CCN1[C@H](/C=C/C2CC2)[C@H](Cc2ccccc2)OC(=O)[C@@H]1Cc1ccccc1	0.0853
CCOC(=O)C[C@H]1[C@H](OC(=O)c2ccc(-c3ccccc3)cc2)[C@@H](NC(=O)c2ccccc2)c2cc(OCCCO)ccc2N1C(=O)Cc1ccc(OC)cc1	-0.0936
O=C1OCC=C[C@H]2OC34C=CCN(Cn5nnc6ccccc65)C(=O)[C@H]3N(CCCCCO)C(=O)[C@@H]4[C@@H]12 (some centres undefined)	0.515
C#CCNCc1ccccc1	-0.0848
Cc1ccc(S[C@]2(C(=O)NCC(C)C)CC(=O)N(Cc3cc(C(F)(F)F)cc(C(F)(F)F)c3)[C@@H]2c2ccc(CO)cc2)cc1	-0.142
NCCCCCCNC(=O)[C@H]1C[C@H]2C(=O)N[C@@H](Cc3ccccc3)C(=O)N2[C@H]1c1cccc(OCCO)c1	0.081
C=C(/C(=C/C[C@H](OC(=O)c1ccncc1)c1ccc(OCCO)cc1)c1cc(C(=O)OC)ccc1OC)C(C)C	-0.0095
O=C1NC(=O)C2C1C=CC(C(O)c1ccc(I)cc1)N2Nc1ccccn1 (centres undefined)	0.189
COCCCNC(=O)[C@@H]1c2ccccc2C(=O)N(Cc2ccccc2)[C@H]1c1ccc(CO)cc1	-0.0663
O=C1C2C=CC(C(O)c3c(F)cccc3Cl)N(Nc3ccccc3F)C2C(=O)N1c1ccccc1 (centres undefined)	-0.0749
